Form: system (catalytic domain of human Bub1 (amino acids 704-1085) (Homo sapiens (Human))), quantity (IC50), values below.

Compound: OCC1(COc2cnc(-c3nn(Cc4ccccc4F)c4ccccc34)nc2N(CC2(CO)COC2)c2ccncc2)COC1 [Example 4-2-2]
Target Under Test: catalytic domain of human Bub1 (amino acids 704-1085) (Homo sapiens (Human))
IC50: 430 nM

Compound: OCCOc1cnc(-c2nn(Cc3ccccc3F)c3ccccc23)nc1Nc1ccncc1 [Example 13-2]
Target Under Test: catalytic domain of human Bub1 (amino acids 704-1085) (Homo sapiens (Human))
IC50: 7.2 nM

Compound: CCOc1cc(F)c(Cn2nc(-c3ncc(OC[C@@H]4CCC(=O)N4)c(Nc4ccncc4)n3)c3ccccc32)c(F)c1 [Example 4-18]
Target Under Test: catalytic domain of human Bub1 (amino acids 704-1085) (Homo sapiens (Human))
IC50: 12 nM

Compound: COc1cnc(-c2nn(Cc3ccc4c(C)cc(=O)oc4c3)c3ccccc23)nc1Nc1ccncc1 [Example 2-32-1]
Target Under Test: catalytic domain of human Bub1 (amino acids 704-1085) (Homo sapiens (Human))
IC50: 29 nM

----------
target: catalytic domain of human Bub1 (amino acids 704-1085) (Homo sapiens (Human), UniProt O43683)
Sequence (O43683 704-1085): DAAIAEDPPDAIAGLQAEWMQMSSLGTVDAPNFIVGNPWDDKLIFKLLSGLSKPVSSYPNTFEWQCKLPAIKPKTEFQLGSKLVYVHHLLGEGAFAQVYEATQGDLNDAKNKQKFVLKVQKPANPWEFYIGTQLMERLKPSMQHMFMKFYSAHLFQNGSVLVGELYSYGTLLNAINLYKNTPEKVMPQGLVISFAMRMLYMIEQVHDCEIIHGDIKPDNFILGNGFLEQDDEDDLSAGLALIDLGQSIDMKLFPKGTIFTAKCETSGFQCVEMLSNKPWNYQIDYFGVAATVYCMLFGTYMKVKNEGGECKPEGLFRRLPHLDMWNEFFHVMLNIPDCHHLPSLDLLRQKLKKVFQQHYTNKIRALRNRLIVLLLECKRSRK
pIC50: −log10 of the molar value.
Classes based on pIC50: low bin: < 7; mid bin: ≥ 7 and < 8; high bin: ≥ 8

Compound: COc1cnc(-c2nn(Cc3cccc(CC(C)(C)O)c3)c3ccccc23)nc1Nc1ccncc1
Category Label: mid bin

Compound: CNC(=O)c1cc(F)c(Cn2nc(-c3ncc(OC)c(Nc4ccncc4)n3)c3ccccc32)c(F)c1
Category Label: low bin

Compound: CCOc1cc(F)c(Cn2nc(-c3ncc(OCC(O)CN4CCCCC4)c(Nc4ccncc4)n3)c3ccccc32)c(F)c1 (stereo not drawn)
Category Label: high bin

Compound: CCOc1cc(F)c(Cn2nc(-c3ncc(OC(F)F)c(N(c4ccncc4)C(F)F)n3)c3ccccc32)c(F)c1
Category Label: low bin

Compound: COc1cnc(-c2nn(Cc3c(Cl)ccc(C)c3F)c3ccccc23)nc1Nc1ccncc1
Category Label: high bin

Compound: COc1cnc(-c2nn(Cc3c(F)c(F)c(OCC(F)(F)F)c(F)c3F)c3ccccc23)nc1Nc1ccncc1
Category Label: mid bin

Compound: CN(C)CCOc1cnc(-c2nn(Cc3ccc(F)cc3)c3ccccc23)nc1Nc1ccncc1
Category Label: mid bin

Compound: COc1cnc(-c2nn(Cc3cc(F)ccc3Cl)c3ccccc23)nc1Nc1ccncc1
Category Label: mid bin

Compound: COc1cnc(-c2nn(Cc3c(F)cccc3F)c3ccccc23)nc1N(Cc1c(F)cccc1F)c1ccncc1
Category Label: low bin

Compound: COc1ccc(Cn2nc(-c3ncc(OC)c(Nc4ccncc4F)n3)c3ccccc32)cc1
Category Label: mid bin

Compound: COc1cnc(-c2nn(Cc3c(Cl)ccc(C(=O)N4CCOCC4)c3Cl)c3ccccc23)nc1Nc1ccncc1
Category Label: low bin

----------
tested on: NCI-H460 cells; experiment: Proliferation assay (H460 cell line); assay type: cell-based; details: Homo sapiens, NCI-H460, 96 h, H460, 4 days, crystal violet; read-out: Biological Assay 2: Proliferation assay (H460 cell line) median IC50
pIC50: −log10 of the molar value.
Catalogue of compounds with associated pIC50

Compound: COc1cnc(-c2nn(Cc3c(F)ccc(OC)c3F)c3ccccc23)nc1Nc1ccncc1 [Example 2-4-1]
Target Under Test: NCI-H460 cells
pIC50: 5.38

Compound: COc1cnc(-c2nn(Cc3c(Cl)ccc(NC(C)=O)c3Cl)c3ccccc23)nc1Nc1ccncc1 [Example 41-1]
Target Under Test: NCI-H460 cells
pIC50: 5.00

Compound: COc1cnc(-c2nn(Cc3c(Cl)ccc(C(F)(F)F)c3Cl)c3ccccc23)nc1Nc1ccncc1 [Example 2-34-1]
Target Under Test: NCI-H460 cells
pIC50: 5.18

Compound: COc1cnc(-c2nn(Cc3ccc4c(C)cc(=O)oc4c3)c3ccccc23)nc1Nc1ccncc1 [Example 2-32-1]
Target Under Test: NCI-H460 cells
pIC50: 5.07

Compound: CCOc1cc(F)c(Cn2nc(-c3ncc(OC(F)F)c(N(c4ccncc4)C(F)F)n3)c3ccccc32)c(F)c1 [Example 10-2]
Target Under Test: NCI-H460 cells
pIC50: 5.82

Hey, just so you know, these numbers are from patent US10266548B2.
